Property: EC50; scope: individual molecules
- protocol-summary: Inhibition of NS5B polymerase in HCV genotype 2B infected in HuH7 cells after 40 hrs by Taqman probe based RT-PCR analysis
Kindly answer with a numeric value in nM, unit omitted.

1. CNC(=O)c1c(-c2ccc(F)cc2)oc2cc(N(C)S(C)(=O)=O)c(-c3ccc4ncn5c6cccc(F)c6cc5c4n3)cc12 ... 2.4
2. CNC(=O)c1c(-c2ccc(F)cc2)oc2cc(N(C)S(C)(=O)=O)c(-c3ccc4c(n3)-c3cc5c(F)cccc5n3CC4)cc12 ... 2.7
3. CNC(=O)c1c(-c2ccc(F)cc2)oc2cc(N(C)S(C)(=O)=O)c(-c3ccc4c(n3)-c3cc5c(F)cccc5n3CCC4)cc12 ... 6.5

Asked: Would you mind telling me what EC50 value was observed for CNC(=O)c1c(-c2ccc(F)cc2)oc2cc(N(C)S(C)(=O)=O)c(-c3ccc4c(n3)-c3cc5c(F)cccc5n3CN4)cc12 ?
Given back: 2.9

* * *

- protocol-summary: Inhibition of NS5B polymerase in HCV genotype 2A infected in HuH7 cells after 40 hrs by Taqman probe based RT-PCR analysis
measured-metric: EC50
Write your answer as a measured quantity: the number, then the unit.

Completed entries (count: 2):
1. CNC(=O)c1c(-c2ccc(F)cc2)oc2cc(N(C)S(C)(=O)=O)c(-c3cc4n(c(=O)c3)CCn3c-4cc4c(F)cccc43)cc12 ... 11 nM
2. CNC(=O)c1c(-c2ccc(F)cc2)oc2cc(N(C)S(C)(=O)=O)c(-c3ccc4c(n3)-c3cc5c(F)cccc5n3CCC4)cc12 ... 6.8 nM

# ---- query compound ----
Asked: Fill blank: measured EC50 of the compound CNC(=O)c1c(-c2ccc(F)cc2)oc2cc(N(C)S(C)(=O)=O)c(-c3ccc4c(n3)-c3cc5c(F)cccc5n3CC4)cc12 is ____.
Given back: 6 nM

* * *

- protocol-summary: Inhibition of NS5B polymerase in HCV genotype 1a infected in HuH7 cells after 40 hrs by Taqman probe based RT-PCR analysis
measured-metric: pEC50
Reminder that pEC50 means the negative base-10 logarithm of the concentration expressed in mol/L.

// known answers, use as guide
1) CNC(=O)c1c(-c2ccc(F)cc2)oc2cc(N(C)S(C)(=O)=O)c(-c3ccc4c(n3)-c3cc5c(F)cccc5n3C4)cc12 ... 8.66
2) CNC(=O)c1c(-c2ccc(F)cc2)oc2cc(N(C)S(C)(=O)=O)c(-c3ccc4ccn5c6cccc(F)c6cc5c4n3)cc12 ... 9.02
3) CNC(=O)c1c(-c2ccc(F)cc2)oc2cc(N(C)S(C)(=O)=O)c(-c3ccc4ncn5c6cccc(F)c6cc5c4n3)cc12 ... 9.17

Asked: What pEC50 value was documented for this molecule, CNC(=O)c1c(-c2ccc(F)cc2)oc2cc(N(C)S(C)(=O)=O)c(-c3cc4n(c(=O)c3)CCn3c-4cc4c(F)cccc43)cc12 ?
Given back: 9.21

Asked: Which measured pEC50 value corresponds to CNC(=O)c1c(-c2ccc(F)cc2)oc2cc(N(C)S(C)(=O)=O)c(-c3ccc4c(n3)-c3cc5c(F)cccc5n3CC4)cc12 ?
Given back: 9.07

Asked: Request the reported pEC50 associated with CNC(=O)c1c(-c2ccc(F)cc2)oc2cc(N(C)S(C)(=O)=O)c(-c3ccc4c(n3)-c3cc5c(F)cccc5n3CCCC4)cc12
Given back: 8.70

Asked: What pEC50 value was documented for this molecule, CNC(=O)c1c(-c2ccc(F)cc2)oc2cc(N(C)S(C)(=O)=O)c(-c3ccc4c(n3)-c3cc5c(F)cccc5n3CCC4)cc12 ?
Given back: 8.96

Asked: Suppose we examine the molecule CNC(=O)c1c(-c2ccc(F)cc2)oc2cc(N(C)S(C)(=O)=O)c(-c3ccc4c(n3)-c3cc5c(F)cccc5n3CN4)cc12 ; what pEC50 value has been reported?
Given back: 9.05
